Items are presented alongside their recorded Population Apoptotic (%).
Tested on: HEK-293T
Assay: Multiplex assay against HEK293T
Type: toxicity, cell-based
Conditions: human, 24 h, 1 µM, compound concentration 1 uM, replicate 2
property: Population Apoptotic (%)

>  <molecule>
CCc1ccc(OCc2ccccc2C(=O)Nc2ccc3nc(C)cc(N)c3c2)cc1.Cl

>  <property>
Population Apoptotic (%)

>  <value units>
%

>  <measurement>
80

$$$$
>  <molecule>
CNC(=O)Nc1ccc(-c2nc(N3CC4CCC(C3)O4)c3cnn(C4CCC5(CC4)OCCO5)c3n2)cc1

>  <property>
Population Apoptotic (%)

>  <value units>
%

>  <measurement>
21

$$$$
>  <molecule>
Cc1ccc2c(c1)c1c(n2CCc2ccc(C)nc2)CCN(C)C1 [LATREPIRDINE]

>  <property>
Population Apoptotic (%)

>  <value units>
%

>  <measurement>
29

$$$$
>  <molecule>
COC(=O)C1=C(C)NC(C)=C(C(=O)OCCCN2CCC(c3ccccc3)(c3ccccc3)CC2)[C@H]1c1cccc([N+](=O)[O-])c1

>  <property>
Population Apoptotic (%)

>  <value units>
%

>  <measurement>
95

$$$$
>  <molecule>
COc1cc2ncn(-c3cc(OCc4ccccc4C(F)(F)F)c(C(N)=O)s3)c2cc1OC [GW843682X]

>  <property>
Population Apoptotic (%)

>  <value units>
%

>  <measurement>
24

$$$$
>  <molecule>
CN1CCN(Cc2cc(NC(=O)c3ccc4c(c3)CN(c3ccccc3)CC4)cc(C(F)(F)F)c2)CC1

>  <property>
Population Apoptotic (%)

>  <value units>
%

>  <measurement>
11

$$$$
>  <molecule>
Cc1cccc(CN2CCN(C(c3ccccc3)c3ccc(Cl)cc3)CC2)c1.Cl.Cl (stereo not drawn)

>  <property>
Population Apoptotic (%)

>  <value units>
%

>  <measurement>
10

$$$$
>  <molecule>
COc1ccccc1CN[C@H]1C2CCN(CC2)[C@H]1C(c1ccccc1)c1ccccc1

>  <property>
Population Apoptotic (%)

>  <value units>
%

>  <measurement>
10

$$$$
